System: Acinetobacter baumannii strains
Assay: Antibiotic susceptibility test (CLSI disk diffusion test method, read per CLSI 2016); also: key: ‘S’ means susceptible; ‘I’ means intermediate; ‘R’ means resistant
Type: cell-based
Settings: host strain YMC14/01/P117
Measurement type: antibiotic susceptibility class

Compound	Tgt	antibiotic susceptibility class
C[C@H]1COc2c(N3CCN(C)CC3)c(F)cc3c(=O)c(C(=O)O)cn1c23 [Levofloxacin, levofloxacin]	Acinetobacter baumannii strains	I
CN(C)c1ccc(O)c2c1C[C@H]1C[C@H]3[C@H](N(C)C)C(O)=C(C(N)=O)C(=O)[C@@]3(O)C(O)=C1C2=O [Minocycline, minocycline]	Acinetobacter baumannii strains	S
NCC[C@H](O)C(=O)N[C@@H]1C[C@H](N)[C@@H](O[C@H]2O[C@H](CN)[C@@H](O)[C@H](O)[C@H]2O)[C@H](O)[C@H]1O[C@H]1O[C@H](CO)[C@@H](O)[C@H](N)[C@H]1O [Amikacin, amikacin]	Acinetobacter baumannii strains	R
C[C@@H](O)[C@H]1C(=O)N2C(C(=O)O)=C(S[C@@H]3CN[C@H](C(=O)N(C)C)C3)[C@H](C)[C@H]12 [Meropenem, meropenem]	Acinetobacter baumannii strains	R
C[C@@H](O)[C@H]1C(=O)N2C(C(=O)O)=C(SCCN=CN)C[C@H]12 [Imipenem, imipenem]	Acinetobacter baumannii strains	R
CCN1CCN(C(=O)N[C@@H](C(=O)N[C@@H]2C(=O)N3[C@@H]2SC(C)(C)[C@@H]3C(=O)O)c2ccccc2)C(=O)C1=O [Piperacillin, piperacillin]	Acinetobacter baumannii strains	R
CN(C)c1cc(NC(=O)CNC(C)(C)C)c(O)c2c1C[C@H]1C[C@H]3[C@H](N(C)C)C(O)=C(C(N)=O)C(=O)[C@@]3(O)C(O)=C1C2=O [Tigecycline, tigecycline]	Acinetobacter baumannii strains	S
CC(C)(O/N=C(\C(=O)N[C@@H]1C(=O)N2C(C(=O)[O-])=C(C[n+]3ccccc3)CS[C@H]12)c1csc(N)n1)C(=O)O [Ceftazidime, ceftazidime]	Acinetobacter baumannii strains	R

Q) Supply measured antibiotic susceptibility class of CO/N=C(\C(=O)N[C@@H]1C(=O)N2C(C(=O)O)=C(COC(C)=O)CS[C@H]12)c1csc(N)n1 [Cefotaxime, cefotaxime] in your reply.
A) R

* * *

System: Acinetobacter baumannii strains
Experiment: Antibiotic susceptibility test (CLSI disk diffusion test method, read per CLSI 2016); also: key: ‘S’ means susceptible; ‘I’ means intermediate; ‘R’ means resistant
Type: cell-based
Details: host strain YMC16/01/P11
Measurement type: susceptibility category (S/I/R)

Worked examples follow.
Compound	Measurement type	Result
NCC[C@H](O)C(=O)N[C@@H]1C[C@H](N)[C@@H](O[C@H]2O[C@H](CN)[C@@H](O)[C@H](O)[C@H]2O)[C@H](O)[C@H]1O[C@H]1O[C@H](CO)[C@@H](O)[C@H](N)[C@H]1O [Amikacin, amikacin]	susceptibility category (S/I/R)	R
CCN1CCN(C(=O)N[C@@H](C(=O)N[C@@H]2C(=O)N3[C@@H]2SC(C)(C)[C@@H]3C(=O)O)c2ccccc2)C(=O)C1=O [Piperacillin, piperacillin]	susceptibility category (S/I/R)	R
C[C@H]1COc2c(N3CCN(C)CC3)c(F)cc3c(=O)c(C(=O)O)cn1c23 [Levofloxacin, levofloxacin]	susceptibility category (S/I/R)	R
CO/N=C(\C(=O)N[C@@H]1C(=O)N2C(C(=O)O)=C(COC(C)=O)CS[C@H]12)c1csc(N)n1 [Cefotaxime, cefotaxime]	susceptibility category (S/I/R)	R
CN(C)c1cc(NC(=O)CNC(C)(C)C)c(O)c2c1C[C@H]1C[C@H]3[C@H](N(C)C)C(O)=C(C(N)=O)C(=O)[C@@]3(O)C(O)=C1C2=O [Tigecycline, tigecycline]	susceptibility category (S/I/R)	S

Q) Supply measured susceptibility category (S/I/R) of C[C@@H](O)[C@H]1C(=O)N2C(C(=O)O)=C(SCCN=CN)C[C@H]12 [Imipenem, imipenem] in your reply.
A) R

Q) Supply measured susceptibility category (S/I/R) of C[C@@H](O)[C@H]1C(=O)N2C(C(=O)O)=C(S[C@@H]3CN[C@H](C(=O)N(C)C)C3)[C@H](C)[C@H]12 [Meropenem, meropenem] in your reply.
A) R

Q) Supply measured susceptibility category (S/I/R) of CN(C)c1ccc(O)c2c1C[C@H]1C[C@H]3[C@H](N(C)C)C(O)=C(C(N)=O)C(=O)[C@@]3(O)C(O)=C1C2=O [Minocycline, minocycline] in your reply.
A) S

Q) Supply measured susceptibility category (S/I/R) of CC(C)(O/N=C(\C(=O)N[C@@H]1C(=O)N2C(C(=O)[O-])=C(C[n+]3ccccc3)CS[C@H]12)c1csc(N)n1)C(=O)O [Ceftazidime, ceftazidime] in your reply.
A) R

* * *

Tested on: Acinetobacter baumannii strains
Test: Antibiotic susceptibility test (CLSI disk diffusion test method, read per CLSI 2016); also: key: ‘S’ means susceptible; ‘I’ means intermediate; ‘R’ means resistant
Assay type: cell-based
Details: host strain YMC14/01/R1659
Measurement type: antibiotic susceptibility class

> print(dat)
                         compound.structure  result
1  C[C@H]1COc2c(N3CCN(C)CC3)c(F)cc3c(=O)c(C(=O)O)cn1c23       R
2  C[C@@H](O)[C@H]1C(=O)N2C(C(=O)O)=C(SCCN=CN)C[C@H]12       R
3  CN(C)c1cc(NC(=O)CNC(C)(C)C)c(O)c2c1C[C@H]1C[C@H]3[C@H](N(C)C)C(O)=C(C(N)=O)C(=O)[C@@]3(O)C(O)=C1C2=O       S
4  CO/N=C(\C(=O)N[C@@H]1C(=O)N2C(C(=O)O)=C(COC(C)=O)CS[C@H]12)c1csc(N)n1       R

* * *

Tested on: Acinetobacter baumannii strains
Experiment: Antibiotic susceptibility test (CLSI disk diffusion test method, read per CLSI 2016); also: key: ‘S’ means susceptible; ‘I’ means intermediate; ‘R’ means resistant
Format: cell-based
Conditions: host strain YMC16/05/R2210
Measurement type: antibiotic susceptibility S/I/R

Worked examples follow.
> print(dat)
                                   molecule                 measurement.type  result
1  C[C@@H](O)[C@H]1C(=O)N2C(C(=O)O)=C(S[C@@H]3CN[C@H](C(=O)N(C)C)C3)[C@H](C)[C@H]12 [Meropenem, meropenem]  antibiotic susceptibility S/I/R       R
2  CCN1CCN(C(=O)N[C@@H](C(=O)N[C@@H]2C(=O)N3[C@@H]2SC(C)(C)[C@@H]3C(=O)O)c2ccccc2)C(=O)C1=O [Piperalillinc]  antibiotic susceptibility S/I/R       R
3  CC(C)(O/N=C(\C(=O)N[C@@H]1C(=O)N2C(C(=O)[O-])=C(C[n+]3ccccc3)CS[C@H]12)c1csc(N)n1)C(=O)O [Ceftazidime, ceftazidime]  antibiotic susceptibility S/I/R       R
4  C[C@@H](O)[C@H]1C(=O)N2C(C(=O)O)=C(SCCN=CN)C[C@H]12 [Imipenem, imipenem]  antibiotic susceptibility S/I/R       R

Q) Supply measured antibiotic susceptibility S/I/R of CN(C)c1ccc(O)c2c1C[C@H]1C[C@H]3[C@H](N(C)C)C(O)=C(C(N)=O)C(=O)[C@@]3(O)C(O)=C1C2=O [Minocycline, minocycline] in your reply.
A) S

* * *

System: Acinetobacter baumannii strains
Experiment: Antibiotic susceptibility test (CLSI disk diffusion test method, read per CLSI 2016); also: key: ‘S’ means susceptible; ‘I’ means intermediate; ‘R’ means resistant
Assay type: cell-based
Settings: host strain YMC14/01/R160
Measurement type: antibiotic susceptibility class

Worked examples follow.
Molecule	antibiotic susceptibility class
CCN1CCN(C(=O)N[C@@H](C(=O)N[C@@H]2C(=O)N3[C@@H]2SC(C)(C)[C@@H]3C(=O)O)c2ccccc2)C(=O)C1=O [Piperacillin, piperacillin]	R
CO/N=C(\C(=O)N[C@@H]1C(=O)N2C(C(=O)O)=C(COC(C)=O)CS[C@H]12)c1csc(N)n1 [Cefotaxime, cefotaxime]	R
CN(C)c1cc(NC(=O)CNC(C)(C)C)c(O)c2c1C[C@H]1C[C@H]3[C@H](N(C)C)C(O)=C(C(N)=O)C(=O)[C@@]3(O)C(O)=C1C2=O [Tigecycline, tigecycline]	S
CN(C)c1ccc(O)c2c1C[C@H]1C[C@H]3[C@H](N(C)C)C(O)=C(C(N)=O)C(=O)[C@@]3(O)C(O)=C1C2=O [Minocycline, minocycline]	I
C[C@@H](O)[C@H]1C(=O)N2C(C(=O)O)=C(SCCN=CN)C[C@H]12 [Imipenem, imipenem]	R

Turning now to a further record.
Q) Supply measured antibiotic susceptibility class of NCC[C@H](O)C(=O)N[C@@H]1C[C@H](N)[C@@H](O[C@H]2O[C@H](CN)[C@@H](O)[C@H](O)[C@H]2O)[C@H](O)[C@H]1O[C@H]1O[C@H](CO)[C@@H](O)[C@H](N)[C@H]1O [Amikacin, amikacin] in your reply.
A) R

* * *

Test system: Acinetobacter baumannii strains
Assay: Antibiotic susceptibility test (CLSI disk diffusion test method, read per CLSI 2016); also: key: ‘S’ means susceptible; ‘I’ means intermediate; ‘R’ means resistant
Format: cell-based
Settings: host strain YMC14/02/R1860
Measurement type: antibiotic susceptibility class

Worked examples follow.
Molecule	Measurement type	Result
CCN1CCN(C(=O)N[C@@H](C(=O)N[C@@H]2C(=O)N3[C@@H]2SC(C)(C)[C@@H]3C(=O)O)c2ccccc2)C(=O)C1=O [Piperacillin, piperacillin]	antibiotic susceptibility class	R
CN(C)c1cc(NC(=O)CNC(C)(C)C)c(O)c2c1C[C@H]1C[C@H]3[C@H](N(C)C)C(O)=C(C(N)=O)C(=O)[C@@]3(O)C(O)=C1C2=O [Tigecycline, tigecycline]	antibiotic susceptibility class	I
C[C@H]1COc2c(N3CCN(C)CC3)c(F)cc3c(=O)c(C(=O)O)cn1c23 [Levofloxacin, levofloxacin]	antibiotic susceptibility class	R
CC(C)(O/N=C(\C(=O)N[C@@H]1C(=O)N2C(C(=O)[O-])=C(C[n+]3ccccc3)CS[C@H]12)c1csc(N)n1)C(=O)O [Ceftazidime, ceftazidime]	antibiotic susceptibility class	R
CO/N=C(\C(=O)N[C@@H]1C(=O)N2C(C(=O)O)=C(COC(C)=O)CS[C@H]12)c1csc(N)n1 [Cefotaxime, cefotaxime]	antibiotic susceptibility class	R

Turning now to a further record.
Q) Please tell me the measured antibiotic susceptibility class for C[C@@H](O)[C@H]1C(=O)N2C(C(=O)O)=C(SCCN=CN)C[C@H]12 [Imipenem, imipenem] ; system: Acinetobacter baumannii strains.
A) R
